meta.source: patent US8475804B2

- Tested on: Ebola virus
- run_description: microbe, parasite or virus in culture
- Format: cell-based, Ebolavirus (EBOV)
Examples of molecules with documented Max Effect follow.
// return a plain number; no unit text

Worked cases, answers included:
CCCCCCCCCC(=O)NC(CN1CCOCC1)C(O)c1ccccc1.Cl (stereo not drawn) [PDMP Hydrochloride] = 0.390
CN(C)CCOc1ccc(/C(=C(/CCCl)c2ccccc2)c2ccccc2)cc1 [Toremifene] = 0.461
CCCCCCCCCCCCCC(=O)O[C@@H]1[C@@H](C)[C@@]2(O)[C@@H](C=C(CO)C[C@]3(O)C(=O)C(C)=C[C@@H]23)[C@@H]2C(C)(C)[C@]12OC(C)=O = 0.800
CCCC[C@H]1C(=O)O[C@H](C)[C@H](NC(=O)c2cccc(NC=O)c2OC)C(=O)O[C@@H](C)[C@@H]1OC(=O)CC(C)C [2-Methoxy-antimycin A3] = 0.791
CSc1ccc2c(c1)N(CCC1CCCCN1C)c1ccccc1S2.Cl (stereo not drawn) [Thioridazine Hydrochloride] = 0.915

--- query ---
Q: Find the recorded Max Effect belonging to CN(C)C(=O)C(CCN1CCC(O)(c2ccc(Cl)cc2)CC1)(c1ccccc1)c1ccccc1 [Loperamide] and report it.
A: 0.716

###

- Test system: Ebola virus
- run_description: microbe, parasite or virus in culture
- Format: cell-based, Ebolavirus (EBOV)
- test_parameters: Zaire ebolavirus, Vero, read-out: Max Effect
Where a name gives a salt, the structure may show the parent alone.
Examples of compounds with documented Emax follow.
Kindly provide the numeric value in % only, without the unit symbol.

Worked cases, answers included:
CC(=O)N[C@@H](CC(C)C)C(=O)N[C@@H](CC(C)C)C(=O)N[C@H](C=O)CCCNC(=N)N [Leupeptin HCl] = 86.5
CN1CCC(CN2c3ccccc3Sc3ccccc32)C1 (stereo not shown) [Methdilazine Hydrochloride] = 51.9

Q: Find the recorded Emax belonging to CCOC(=O)C1=C(COCCN)NC(C)=C(C(=O)OC)C1c1ccccc1Cl (stereo not shown) [Amlodipine Besylate] and report it.
A: 52.8

Q: Find the recorded Emax belonging to O=C([O-])CN(CCN(CC(=O)[O-])CC(=O)[O-])CC(=O)[O-].[Ca+2].[Na+].[Na+] [Edetate Calcium Disodium] and report it.
A: 84.1

Q: Find the recorded Emax belonging to Cc1cc(C2CCCCC2)n(O)c(=O)c1 and report it.
A: 43.1

Q: Find the recorded Emax belonging to OCCN1CCN(CCCN2c3ccccc3Sc3ccc(Cl)cc32)CC1 and report it.
A: 79.3

Q: Find the recorded Emax belonging to CC(C)COCC(CN(Cc1ccccc1)c1ccccc1)N1CCCC1 (stereo not shown) [Bepridil Hydrochloride Monohydrate] and report it.
A: 72

Q: Find the recorded Emax belonging to CCOc1ccc(/C=C2\NCCc3cc(OCC)c(OCC)cc32)cc1OCC [Drotaverine Hydrochloride] and report it.
A: 36.7

###

- System: Ebola virus
- run_description: microbe, parasite or virus in culture
- Type: cell-based, Ebolavirus (EBOV)
- test_parameters: Zaire ebolavirus, Vero, read-out: Max Effect Vero
Counter-ions that a name gives are not always drawn.
property_label: Emax (%)
Kindly provide the numeric value in % only, without the unit symbol.

Worked cases, answers included:
CN1[C@@H]2CC[C@H]1C[C@@H](OC(c1ccccc1)c1ccccc1)C2 [Benztropine Mesylate] = 89.9
CN(C)CCOc1ccc(/C(=C(/CCCl)c2ccccc2)c2ccccc2)cc1 [Toremifene Citrate] = 93.5
COc1c(C)c2c(c(O)c1C/C=C(\C)CCC(=O)OCCN1CCOCC1)C(=O)OC2 [Mycophenolate Mofetil] = 43.8

Q: Lab request: please report Emax under test system Ebola virus for CN[C@H]1CC[C@@H](c2ccc(Cl)c(Cl)c2)c2ccccc21 [Sertraline Hydrochloride]
A: 96.2

###

Examples of molecules with documented IC50 follow.
- Test system: Ebola virus
- run_description: microbe, parasite or virus in culture
- Format: cell-based, Ebolavirus (EBOV)
- test_parameters: read-out: IC50
Structures can show the parent of a compound that is named as a salt.
Kindly provide the numeric value in µM only, without the unit symbol.

Worked cases, answers included:
OCCN1CCN(CC/C=C2/c3ccccc3Sc3ccc(C(F)(F)F)cc32)CC1 [Flupentixol Dihydrochloride] = 3.8
CC(=O)O.CC(=O)O.NC(=N\CCCCCC/N=C(N)/N=C(\N)Nc1ccc(Cl)cc1)/N=C(\N)Nc1ccc(Cl)cc1 [Chlorhexidine Diacetate] = 6.1

--- query ---
Q: Find the recorded IC50 belonging to CC(=O)c1ccc2c(c1)N(CCCN1CCC(CCO)CC1)c1ccccc1S2 [Piperacetazine] and report it.
A: 6.6

###

- System: Ebola virus
- run_description: microbe, parasite or virus in culture
- Assay type: cell-based, Ebolavirus (EBOV)
- test_parameters: read-out: IC50
IC50 under 1000 nM gets y, anything at or over 1000 nM gets n.

CCCC[C@H]1C(=O)O[C@H](C)[C@H](NC(=O)c2cccc(NC=O)c2OC)C(=O)O[C@@H](C)[C@@H]1OC(=O)CC(C)C [2-Methoxy-antimycin A3] = n

Q: Lab note: IC50 threshold 1000 nM. Does this molecule come in strictly under it? CO/C1=C\C(C)=C\[C@@H](C)[C@@H](O)[C@@H](C)C/C(C)=C/C=C/[C@H](OC)[C@@H]([C@@H](C)[C@@H](O)[C@H](C)[C@@]2(O)C[C@@H](O)[C@H](C)[C@@H](C(C)C)O2)OC1=O
A: y

Q: Lab note: IC50 threshold 1000 nM. Does this molecule come in strictly under it? C/C1=C/C(=O)O[C@@H]2C[C@@H](CC[C@H](C)/C=C\CC1)O[C@@](O)([C@@H]1CSC(=O)N1)C2
A: y

Q: Lab note: IC50 threshold 1000 nM. Does this molecule come in strictly under it? O=S(=O)([O-])[O-].[Mg+2] [Magnesium Sulfate]
A: n

Q: Lab note: IC50 threshold 1000 nM. Does this molecule come in strictly under it? Nc1nc(-c2nn(Cc3ccccc3F)c3ncccc23)ncc1C1CC1
A: y

Q: Lab note: IC50 threshold 1000 nM. Does this molecule come in strictly under it? C=CC(C)(C)c1cc(/C=C/C(=O)c2ccc(O)cc2)c(OC)cc1O
A: n

###

- System: Ebola virus
- run_description: microbe, parasite or virus in culture
- Type: cell-based, Ebolavirus (EBOV)
Structures can show the parent of a compound that is named as a salt.
Would you please tag the item t when its Max Effect is 0.5 or above, and f when it is below?

NCCNS(=O)(=O)c1ccc(Cl)c2ccncc12 = t
Nc1nc(-c2nn(Cc3ccccc3F)c3ncccc23)ncc1C1CC1 = t
O=[N+]([O-])c1ccccc1OCCCCCOc1ccccc1[N+](=O)[O-] = t
CN(C)CCOc1ccc(/C(=C(/CCCl)c2ccccc2)c2ccccc2)cc1 [Toremifene Citrate] = t
C/C1=C/C(=O)O[C@@H]2C[C@@H](CC[C@H](C)/C=C\CC1)O[C@@](O)([C@@H]1CSC(=O)N1)C2 = t

Q: Assess whether reported Max Effect for C=CC(C)(C)c1cc(/C=C/C(=O)c2ccc(O)cc2)c(OC)cc1O sits at 0.5 or higher.
A: t

Q: Assess whether reported Max Effect for Nc1ncnc2c1c(I)cn2[C@@H]1O[C@H](CO)[C@@H](O)[C@H]1O sits at 0.5 or higher.
A: f

Q: Assess whether reported Max Effect for CC[C@H](C)[C@H](NC(=O)[C@H]([C@@H](C)CC)N(C)C(C)=O)C(=O)N[C@H](C(=O)N[C@@H](CC(C)C)C(=O)[C@@]1(C)CO1)[C@@H](C)O sits at 0.5 or higher.
A: f

Q: Assess whether reported Max Effect for CC(=O)O.CC(=O)O.NC(=N\CCCCCC/N=C(N)/N=C(\N)Nc1ccc(Cl)cc1)/N=C(\N)Nc1ccc(Cl)cc1 [Chlorhexidine Diacetate] sits at 0.5 or higher.
A: t

###

- Test system: Ebola virus
- run_description: microbe, parasite or virus in culture
- Format: cell-based, Ebolavirus (EBOV)
- test_parameters: Zaire ebolavirus, Vero, read-out: Max Effect
Counter-ions that a name gives are not always drawn. Residues, ends and D or L forms follow the SMILES beside them. *: point of attachment. Cbz = O=C(OCc1ccccc1)*
property_label: Emax (%)
Kindly provide the numeric value in % only, without the unit symbol.

CCCCCCCCCCCC[N+](C)(C)CCOc1ccccc1 [Domiphen Bromide] = 71.5
CN1CCN(C(c2ccccc2)c2ccc(Cl)cc2)CC1 (stereo not shown) [Chlorcyclizine Hydrochloride] = 45.6
Cc1cc(/C=C/c2ccc3cc(N(C)C)ccc3[n+]2C)c(C)n1-c1ccccc1 [Pyrvinium Pamoate] = 80
CN1C[C@H](CNC(=O)OCc2ccccc2)C[C@@H]2c3cccc4c3c(cn4C)C[C@H]21 = 57.7
CC(C)[C@H](NC(=O)OCc1ccccc1)C(=O)N[C@H](C=O)Cc1ccccc1 [Carbobenzoxy-valinyl-phenylalaninal] (Cbz-Val-Phe-aldehyde) = 60.7

Q: Find the recorded Emax belonging to CCCCCCCCOC(=O)c1cc(O)c(O)c(O)c1 [Octyl Gallate] and report it.
A: 43.9

Q: Find the recorded Emax belonging to N=C(N)c1ccc(OCCCCCOc2ccc(C(=N)N)cc2)cc1 and report it.
A: 42.2

Q: Find the recorded Emax belonging to CCC(=O)O[C@](Cc1ccccc1)(c1ccccc1)[C@H](C)CN(C)C [Propoxyphene Hydrochloride] and report it.
A: 42.2

Q: Find the recorded Emax belonging to CC(C)C[C@H]1C(=O)N2CCC[C@H]2[C@]2(O)O[C@](NC(=O)[C@@H]3C=C4c5cccc6[nH]c(Br)c(c56)C[C@H]4N(C)C3)(C(C)C)C(=O)N12 [Bromocriptine Mesylate] and report it.
A: 42.2

Q: Find the recorded Emax belonging to CCCCCC(=O)O[C@]1(C(C)=O)CC[C@H]2[C@@H]3CCC4=CC(=O)CC[C@]4(C)[C@H]3CC[C@@]21C [Hydroxyprogesterone Caproate] and report it.
A: 71.9

Q: Find the recorded Emax belonging to Oc1c2ccccc2c2c3c(cccc13)N=N2 and report it.
A: 36.5

Q: Find the recorded Emax belonging to O=c1[nH]c2ccccc2n1CCCN1CCN(C(c2ccccc2)c2ccccc2)CC1 [Oxatomide] and report it.
A: 62.2
